Measured MIC accompanies every entry in the list below.
# Tested on: Staphylococcus aureus
# measurement-notes: Antimicrobial activity against Staphylococcus aureus FRI 100 by macrodilution method
# Assay type: functional

Oc1ccc(Cl)cc1Cc1cc(Cl)ccc1O	20 µM
Oc1ccc(Cl)cc1Cc1cc(Cl)cc(Cc2cc(Cl)cc(Cc3cc(Cl)cc(Cc4cc(Cl)ccc4O)c3O)c2O)c1O	5 µM
Oc1ccc(Cl)cc1Cc1cc(Cl)cc(Cc2cc(Cl)cc(Cc3cc(Cl)ccc3O)c2O)c1O	0.16 µM

Now examine the next entry.
Q) Find the measured MIC of Oc1ccc(Cl)cc1Cc1cc(Cl)cc(Cc2cc(Cl)ccc2O)c1O and report it.
A) 0.08 µM

====

# measurement-notes: Toxicity in po dosed male Sherman rat
# Format: organism-based
# measurement-setup: in vivo
measured-quantity: LD50 (mg/kg)
Answer format: numeric, mg/kg implied, no suffix.

Q) Report measured LD50; entry is Oc1ccc(Cl)cc1Cc1cc(Cl)ccc1O [DICHLOROPHEN]
A) 1510

====

A collection of compounds and their measured MIC
# System: Pseudomonas aeruginosa
# measurement-notes: Antimicrobial activity against Pseudomonas aeruginosa K by macrodilution method
# Assay type: functional

Q) // fetch MIC given entry Oc1ccc(Cl)cc1Cc1cc(Cl)cc(Cc2cc(Cl)ccc2O)c1O
A) 40 µM

Q) Could you please provide reported MIC for Oc1ccc(Cl)cc1Cc1cc(Cl)cc(Cc2cc(Cl)cc(Cc3cc(Cl)cc(Cc4cc(Cl)ccc4O)c3O)c2O)c1O ? Thanks!
A) > 80 µM

Q) Name the recorded MIC of the item Oc1ccc(Cl)cc1Cc1cc(Cl)cc(Cc2cc(Cl)cc(Cc3cc(Cl)ccc3O)c2O)c1O in your answer.
A) > 80 µM

Q) Give MIC for Oc1ccc(Cl)cc1Cc1cc(Cl)ccc1O
A) > 320 µM

====

Form field: MIC (one value per entry).
# Tested on: Bacillus anthracis
# measurement-notes: Antimicrobial activity against Bacillus anthracis Sterne 7702 by macrodilution method
# Type: functional
Answer format: numeric, µM implied, no suffix.

Examples with their reported MIC follow.
Oc1ccc(Cl)cc1Cc1cc(Cl)ccc1O [DICHLOROPHEN]	5
Oc1ccc(Cl)cc1Cc1cc(Cl)cc(Cc2cc(Cl)ccc2O)c1O	0.3
Oc1ccc(Cl)cc1Cc1cc(Cl)cc(Cc2cc(Cl)cc(Cc3cc(Cl)ccc3O)c2O)c1O	0.16

Query compound follows.
Q) Return MIC (reported value) for this compound: Oc1ccc(Cl)cc1Cc1cc(Cl)cc(Cc2cc(Cl)cc(Cc3cc(Cl)cc(Cc4cc(Cl)ccc4O)c3O)c2O)c1O
A) 1.3
